Test system: M. tuberculosis H37Rv growth inhibition, 7H9 media
Assay: M. tuberculosis growth inhibition, HTS (AID 449762);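 further: bacterial growth assessed after seven days of incubation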
Conditions: measured here: IC90 growth inhibition
Inconclusive results are not listed.
observable: IC90 (µM)

1. O=C(C[n+]1cc(-c2ccc(Cl)cc2)n2c1CCC2)Nc1nc(-c2ccccc2)cs1: 25.1
2. CN(C)c1ccnc2c[cH-]cc12.[Fe].c1ccc(-[c-]2[c-](-c3ccccc3)[c-](-c3ccccc3)[c-](-c3ccccc3)[c-]2-c2ccccc2)cc1 (stereo not given): 17.4
3. COc1ccc(-n2nnnc2S(=O)(=O)CC(=O)N2CCCCC2)cc1: 27
4. Cc1ccc(O)c(C(=O)CC(=O)c2ccccc2Cl)c1: 40.1
